So I've got a bunch of binders here, and I need their OD at 10 nM values.
# MEASUREMENT_TARGET: T1, hPD-1-Fc (human, UniProt Q15116 25-167)
# T1 construct: domain: IgV domain; also called human PD-1-Fc; not shown: human IgG1 Fc
# T1 sequence (Q15116 25-167 limits assumed): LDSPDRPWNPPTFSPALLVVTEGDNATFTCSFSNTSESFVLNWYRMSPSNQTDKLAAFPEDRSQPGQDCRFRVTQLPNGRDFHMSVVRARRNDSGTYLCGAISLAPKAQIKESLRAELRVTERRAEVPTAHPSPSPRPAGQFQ
# METHOD_NOTES: ELISA, hPD-1-Fc coated
// return numeric value only (unit: OD450, not printed)

The binder identified as 23A11 (antibody, human IgG1, V domains shown) VH: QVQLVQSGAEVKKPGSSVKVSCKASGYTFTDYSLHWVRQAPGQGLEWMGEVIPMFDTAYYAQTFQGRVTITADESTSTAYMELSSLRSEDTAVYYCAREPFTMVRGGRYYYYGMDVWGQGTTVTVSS VL: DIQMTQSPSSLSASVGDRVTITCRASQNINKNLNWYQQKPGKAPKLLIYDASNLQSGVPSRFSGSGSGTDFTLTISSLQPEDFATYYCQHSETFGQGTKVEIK registered its OD at 10 nM at 2.04

In plain terms, 23A8 (antibody, human IgG1, V domains shown) VH: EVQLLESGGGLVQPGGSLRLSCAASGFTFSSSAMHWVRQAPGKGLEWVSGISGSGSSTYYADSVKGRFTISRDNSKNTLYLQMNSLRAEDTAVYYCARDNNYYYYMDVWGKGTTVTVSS VL: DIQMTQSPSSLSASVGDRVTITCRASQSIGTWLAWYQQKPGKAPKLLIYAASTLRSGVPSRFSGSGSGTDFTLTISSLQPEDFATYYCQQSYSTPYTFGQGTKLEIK has a documented OD at 10 nM of 1.74

Note to self: OD at 10 nM recorded for 19B10 (antibody, human IgG1, V domains shown) VH: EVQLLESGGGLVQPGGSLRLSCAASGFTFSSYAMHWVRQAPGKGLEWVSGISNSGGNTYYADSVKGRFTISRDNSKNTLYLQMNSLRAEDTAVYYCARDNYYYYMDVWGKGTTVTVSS VL: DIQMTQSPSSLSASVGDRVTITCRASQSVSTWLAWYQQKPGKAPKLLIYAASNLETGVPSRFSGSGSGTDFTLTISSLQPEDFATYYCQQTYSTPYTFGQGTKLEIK was 1.73

Value of OD at 10 nM reported for the binder 24H9 (antibody, human IgG1, V domains shown) VH: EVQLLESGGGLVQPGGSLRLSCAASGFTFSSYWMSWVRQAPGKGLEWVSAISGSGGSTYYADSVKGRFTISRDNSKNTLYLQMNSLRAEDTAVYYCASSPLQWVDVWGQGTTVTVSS VL: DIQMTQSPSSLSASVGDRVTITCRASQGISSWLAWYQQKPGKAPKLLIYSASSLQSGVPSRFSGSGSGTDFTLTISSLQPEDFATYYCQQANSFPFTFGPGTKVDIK is 1.84

Reported OD at 10 nM of 19B6 (antibody, V domains shown) VH: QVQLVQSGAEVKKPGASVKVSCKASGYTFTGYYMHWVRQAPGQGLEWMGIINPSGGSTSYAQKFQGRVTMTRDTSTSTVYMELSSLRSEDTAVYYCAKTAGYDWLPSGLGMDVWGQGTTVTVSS VL: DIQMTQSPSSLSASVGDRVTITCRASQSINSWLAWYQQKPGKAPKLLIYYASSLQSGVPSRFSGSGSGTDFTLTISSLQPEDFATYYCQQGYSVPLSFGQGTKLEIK : 1.81

Origin of measurements: patent US20230416363A1
